system: UniProt P31421
experiment-summary: mGlu2 in vitro GIRK thallium flux assay
Type: cell-based
conditions-used: NAM; 2.5 min compound incubation; EC80 glutamate; HEK-293 GIRK cells; read-out: mGlu2 EC50 (μM) (2.5 min)
Property: EC50; scope: individual molecules
Expressed in µM, but write only the number.

Some solved cases for reference:
molecule="O=C(O)c1cc(-c2cccc(-c3nc(-c4ccccc4)cc(C(F)(F)F)n3)c2)ccc1F [Example 86]" property_label=EC50 measured_number=0.8
molecule="O=C(O)c1cccc(-c2cccc(-c3nc(-c4ccccc4)n(-c4cccc(F)c4)n3)c2)c1 [Example 56]" property_label=EC50 measured_number=3.22
molecule="Cc1cc(Cl)ccc1-c1ccc2c(c1)NC(=O)CC(c1ccnc(Cl)c1)=N2 [Example 196]" property_label=EC50 measured_number=3.59
molecule="O=C(O)c1cccc(-c2cccc(-c3csc(-c4cccc(C(=O)O)c4)n3)c2)c1 [Example 33]" property_label=EC50 measured_number=4.83

Sample O=C(O)c1cc(-c2cccc(-c3csc(-c4cc5ccccc5o4)n3)c2)ccc1F [Example 16] — what was its EC50?
2.57

And O=C(O)c1ccc(-c2cccc(-c3nc(-c4ccc(C(F)(F)F)nc4)cc(C(F)(F)F)n3)c2)c(Cl)c1 [Example 78] ?
3.49

###

system: rat mGlu3 receptor (Rattus norvegicus (Rat))
Sequence (P31422 23-879): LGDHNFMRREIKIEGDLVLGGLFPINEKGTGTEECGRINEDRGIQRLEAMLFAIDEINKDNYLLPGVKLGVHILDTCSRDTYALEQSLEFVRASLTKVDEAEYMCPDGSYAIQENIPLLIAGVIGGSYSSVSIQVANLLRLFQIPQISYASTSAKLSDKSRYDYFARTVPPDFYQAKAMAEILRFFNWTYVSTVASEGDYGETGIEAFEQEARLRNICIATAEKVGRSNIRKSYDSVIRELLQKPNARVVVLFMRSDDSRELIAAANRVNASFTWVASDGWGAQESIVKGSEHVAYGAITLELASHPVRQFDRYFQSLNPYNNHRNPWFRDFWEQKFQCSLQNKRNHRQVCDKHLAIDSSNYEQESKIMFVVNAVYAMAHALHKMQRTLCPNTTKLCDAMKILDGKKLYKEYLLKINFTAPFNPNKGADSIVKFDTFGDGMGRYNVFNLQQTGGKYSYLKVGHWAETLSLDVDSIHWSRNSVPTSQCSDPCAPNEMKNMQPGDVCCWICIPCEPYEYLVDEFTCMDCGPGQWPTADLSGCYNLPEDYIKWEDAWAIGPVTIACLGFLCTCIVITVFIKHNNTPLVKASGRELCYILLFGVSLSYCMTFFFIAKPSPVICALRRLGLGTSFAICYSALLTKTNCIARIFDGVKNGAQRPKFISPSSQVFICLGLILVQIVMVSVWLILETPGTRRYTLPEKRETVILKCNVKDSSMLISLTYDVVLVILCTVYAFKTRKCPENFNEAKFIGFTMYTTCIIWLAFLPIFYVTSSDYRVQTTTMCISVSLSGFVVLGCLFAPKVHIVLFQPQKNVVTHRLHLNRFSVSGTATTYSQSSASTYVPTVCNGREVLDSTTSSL
experiment-summary: mGlu3 in vitro GIRK thallium flux assay
Assay type: cell-based
conditions-used: NAM; 2.5 min compound incubation; EC80 glutamate; HEK-293 GIRK cells
Binary call on EC50 with cut-off 3 µM: strictly below means met, and equality or higher means not met.

compound=Cc1nc(-c2cccc(-c3ccc(F)c(C(=O)O)c3)c2)cs1 discrete_label="not met"
compound=O=C(O)c1cc(-c2cccc(-c3nsc(-c4ccccc4)n3)c2)ccc1F discrete_label=met
compound=O=C(O)c1cccc(-c2cccc(-c3nc(-c4ccccc4)n(-c4cccc(F)c4)n3)c2)c1 discrete_label="not met"
compound=O=C(O)c1cccc(-c2cccc(-c3cc(-c4ccccc4)[nH]n3)c2)c1 discrete_label="not met"
compound=O=C(O)c1ccc(-c2cccc(-c3csc(-c4ccccc4)n3)c2)cc1Cl discrete_label="not met"
compound=O=C(O)c1ccc(F)c(-c2cccc(-c3nc(-c4ccccc4)n(-c4ccccc4)n3)c2)c1 discrete_label="not met"
compound=O=C(O)c1cccc(-c2cccc(-c3nc(-c4ccc(C(F)(F)F)nc4)n(-c4ccccc4)n3)c2)c1 discrete_label="not met"
compound=COc1ccc(C(=O)O)cc1-c1cccc(-c2nc(-c3ccc(C(F)(F)F)nc3)cc(C(F)(F)F)n2)c1 discrete_label=met
compound=FC(F)(F)c1ccc(-c2cc(C(F)(F)F)nc(-c3cccc(-c4cccc(-c5nn[nH]n5)c4)c3)n2)cn1 discrete_label=met
compound=O=C(O)c1ccccc1-c1cccc(-c2nc(-c3ccc(C(F)(F)F)nc3)cc(C(F)(F)F)n2)c1 discrete_label="not met"

Would you kindly verify if EC50 of Cc1cc(-c2cccc(C3CC(=O)Nc4cc(NC(=O)OCc5ccccc5)ccc4N3)c2)cc(C)n1 (racemic) is strictly less than 3 µM?
not met

Entry to check: O=C(O)c1cccc(-c2cccc(-c3csc(-c4ccc5c(c4)OCCO5)n3)c2)c1
not met

What about O=C(O)c1cc(F)cc(-c2cccc(-c3nsc(-c4ccccc4)n3)c2)c1 ?
met

Same read-out for O=C(O)c1cc(-c2cccc(-c3csc(-c4cc5ccccc5s4)n3)c2)ccc1F ?
not met

Now try Cc1cc2c(cc1C(F)(F)F)NC(=O)CC(c1cccc(C#Cc3ccccc3)c1)=N2 .
not met

###

system: rat mGlu2 receptor (Rattus norvegicus (Rat))
Sequence (P31421 19-872): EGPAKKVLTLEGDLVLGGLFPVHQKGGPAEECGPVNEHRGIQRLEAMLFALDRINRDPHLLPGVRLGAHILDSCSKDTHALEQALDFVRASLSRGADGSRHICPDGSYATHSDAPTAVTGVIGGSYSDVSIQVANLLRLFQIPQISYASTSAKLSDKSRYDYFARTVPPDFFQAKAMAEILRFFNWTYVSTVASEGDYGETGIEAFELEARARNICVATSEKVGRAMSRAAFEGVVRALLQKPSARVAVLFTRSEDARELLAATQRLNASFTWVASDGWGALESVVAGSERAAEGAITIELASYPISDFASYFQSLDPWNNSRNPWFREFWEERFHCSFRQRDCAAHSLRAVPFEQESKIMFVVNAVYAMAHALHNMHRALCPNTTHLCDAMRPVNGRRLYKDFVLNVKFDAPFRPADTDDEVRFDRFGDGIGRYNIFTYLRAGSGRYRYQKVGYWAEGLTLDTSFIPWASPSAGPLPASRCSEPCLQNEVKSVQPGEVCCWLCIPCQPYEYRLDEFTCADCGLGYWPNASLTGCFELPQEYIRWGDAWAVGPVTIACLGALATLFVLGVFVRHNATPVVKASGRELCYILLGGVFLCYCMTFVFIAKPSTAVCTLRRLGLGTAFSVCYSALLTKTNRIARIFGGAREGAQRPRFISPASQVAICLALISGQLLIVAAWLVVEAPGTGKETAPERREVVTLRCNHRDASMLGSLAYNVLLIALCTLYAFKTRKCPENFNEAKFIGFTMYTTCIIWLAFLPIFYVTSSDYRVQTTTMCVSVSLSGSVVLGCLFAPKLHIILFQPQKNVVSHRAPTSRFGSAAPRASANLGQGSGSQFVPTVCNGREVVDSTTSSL
experiment-summary: mGlu2 in vitro GIRK thallium flux assay
Assay type: cell-based
conditions-used: mGlu2 EC50 (μM) (60 min), NAM; 60 min compound incubation; EC80 glutamate; HEK-293 GIRK cells
property-label: EC50

Consider the worked cases shown below.
molecule=ON=Cc1cc(-c2cccc(-c3csc(-c4ccccc4)n3)c2)ccc1F system="rat mGlu2 receptor (Rattus norvegicus (Rat))" result="> 10 µM"
molecule=O=C(O)c1cc(F)cc(-c2cccc(-c3nc(-c4ccccc4)n(-c4ccccc4)n3)c2)c1 system="rat mGlu2 receptor (Rattus norvegicus (Rat))" result="> 10 µM"
molecule=O=C(O)c1cc(-c2csc(-c3ccccc3)n2)ccc1F system="rat mGlu2 receptor (Rattus norvegicus (Rat))" result="> 30 µM"

// moving on: another record for EC50
What does the record list as EC50 for Cc1cc2c(cc1C(F)(F)F)NC(=O)CC(c1cccc(OCc3ccccc3)c1)N2 (racemic) ?
> 10 µM

###

system: rat mGlu2 receptor (Rattus norvegicus (Rat))
experiment-summary: mGlu2 in vitro GIRK thallium flux assay
Type: cell-based
conditions-used: NAM; 2.5 min compound incubation; EC80 glutamate; HEK-293 GIRK cells; read-out: mGlu2 EC50 (μM) (2.5 min)
property-label: EC50

For orientation, consider the following solved cases.
test_smiles=O=C(O)c1cccc(-c2cccc(-c3cc(-c4ccccc4)[nH]n3)c2)c1 result="> 10 µM"
test_smiles=Cc1cc2c(cc1C(F)(F)F)NC(=O)CC(c1cccc(Oc3cccc(Br)c3)c1)=N2 result="> 10 µM"
test_smiles=O=C(O)c1cc(-c2ccc(-c3csc(-c4ccccc4)n3)cc2)ccc1F result="> 30 µM"
test_smiles=O=C1CC(c2ccnc(-c3ccccc3F)c2)=Nc2ccc(C(F)(F)F)cc2N1 result="> 10 µM"
test_smiles=O=C(O)c1ccc(-c2cccc(-c3csc(-c4ccccc4)n3)c2)cc1 result="> 30 µM"
test_smiles=O=C1CC(c2ccnc(Br)c2)=Nc2ccc(-c3ccc(C(F)(F)F)cc3C(F)(F)F)cc2N1 result="> 10 µM"
test_smiles=Cc1cc2c(cc1C(F)(F)F)NC(=O)CC(c1cccc(C#Cc3ccccc3)c1)=N2 result="> 10 µM"
test_smiles=O=C(O)c1cccc(-c2cccc(-c3nc(-c4ccccc4)n(Cc4ccccc4)n3)c2)c1 result="> 10 µM"
test_smiles=O=C(O)c1cc(-c2cccc(-c3csc(-c4cc5ccccc5s4)n3)c2)ccc1F result="> 10 µM"
test_smiles=O=C(O)c1cc(-c2cccc(Sc3nc(-c4ccco4)cc(C(F)(F)F)n3)c2)ccc1F result="> 10 µM"

Short answer please: EC50, rat mGlu2 receptor (Rattus norvegicus (Rat)), entry Nc1cccc(-c2cn(-c3nc(-c4ccc(C(F)(F)F)nc4)cc(C(F)(F)F)n3)cn2)c1
> 30 µM

# iterate: O=C(O)c1cc(-c2cccc(-c3nc(-c4cc(C(F)(F)F)cc(C(F)(F)F)c4)cc(C(F)(F)F)n3)c2)ccc1F
> 10 µM

Another: Cc1cc2c(cc1C(F)(F)F)NC(=O)CC(c1cccc(Oc3cc(F)cc(F)c3)c1)=N2
> 10 µM

Let us now turn to O=C(O)c1cc(F)cc(-c2cccc(-c3nc(-c4ccccc4)n(-c4ccccc4)n3)c2)c1
> 10 µM

Same thing, different compound: Cc1cccc(-c2ccc3c(c2)NC(=O)CC(c2ccnc(Cl)c2)=N3)c1
> 10 µM

Next compound: O=C(O)c1cccc(-c2cccc(-c3n[nH]c(-c4ccccc4)n3)c2)c1
> 10 µM

###

system: rat mGlu2 receptor (Rattus norvegicus (Rat))
experiment-summary: mGlu2 in vitro GIRK thallium flux assay
Type: cell-based
conditions-used: NAM; 2.5 min compound incubation; EC80 glutamate; HEK-293 GIRK cells; read-out: mGlu2 EC50 (μM) (2.5 min)
property-label: EC50

Solved cases below.
compound=Cc1noc(C)c1-c1cc(C(F)(F)F)nc(-c2cccc(-c3ccc(F)c(C(=O)O)c3)c2)n1 result="> 10 µM"
compound=O=C(O)c1cc(-c2cccc(-c3nc(-c4cc5ccccc5o4)cc(C(F)(F)F)n3)c2)ccc1F result="> 10 µM"
compound=O=C(O)c1cc(-c2cccc(-c3nc(-c4ccccc4)n(-c4ccccc4)n3)c2)ccc1F result="> 10 µM"
compound=N#Cc1cc(C2=Nc3ccc(Cl)cc3NC(=O)C2)ccn1 result="> 10 µM"
compound=O=C(O)c1cccc(-c2cccc(-c3nc(-c4cccs4)n(-c4ccccc4)n3)c2)c1 result="> 10 µM"

Find the recorded EC50 belonging to Cc1cc2c(cc1C(F)(F)F)NC(=O)CC(c1cccc(CCCO)c1)N2 (racemic) and report it.
> 10 µM

Also CCOc1ccc(-c2ccc3c(c2)NC(=O)CC(c2ccnc(Cl)c2)=N3)cc1 ?
> 10 µM

Proceed to O=C(O)c1cc(-c2cccc(-c3csc(-c4ccccc4)c3)c2)ccc1F
> 10 µM

And what about the compound O=C(O)c1ccccc1-c1cccc(-c2csc(-c3ccccc3)n2)c1 ?
> 10 µM

And what about the compound CNC(=O)c1cc(-c2cccc(-c3nc(-c4ccc(C(F)(F)F)nc4)cc(C(F)(F)F)n3)c2)ccc1Cl ?
> 30 µM

Repeat with O=C(O)c1cccc(-c2cccc(-c3nc(-c4ccc(C(F)(F)F)nc4)n(-c4ccccc4)n3)c2)c1
> 10 µM
